# ASSAY TARGET: CDK12 (Homo sapiens)
# Sequence (Q9NYV4 whole entry, species assumed): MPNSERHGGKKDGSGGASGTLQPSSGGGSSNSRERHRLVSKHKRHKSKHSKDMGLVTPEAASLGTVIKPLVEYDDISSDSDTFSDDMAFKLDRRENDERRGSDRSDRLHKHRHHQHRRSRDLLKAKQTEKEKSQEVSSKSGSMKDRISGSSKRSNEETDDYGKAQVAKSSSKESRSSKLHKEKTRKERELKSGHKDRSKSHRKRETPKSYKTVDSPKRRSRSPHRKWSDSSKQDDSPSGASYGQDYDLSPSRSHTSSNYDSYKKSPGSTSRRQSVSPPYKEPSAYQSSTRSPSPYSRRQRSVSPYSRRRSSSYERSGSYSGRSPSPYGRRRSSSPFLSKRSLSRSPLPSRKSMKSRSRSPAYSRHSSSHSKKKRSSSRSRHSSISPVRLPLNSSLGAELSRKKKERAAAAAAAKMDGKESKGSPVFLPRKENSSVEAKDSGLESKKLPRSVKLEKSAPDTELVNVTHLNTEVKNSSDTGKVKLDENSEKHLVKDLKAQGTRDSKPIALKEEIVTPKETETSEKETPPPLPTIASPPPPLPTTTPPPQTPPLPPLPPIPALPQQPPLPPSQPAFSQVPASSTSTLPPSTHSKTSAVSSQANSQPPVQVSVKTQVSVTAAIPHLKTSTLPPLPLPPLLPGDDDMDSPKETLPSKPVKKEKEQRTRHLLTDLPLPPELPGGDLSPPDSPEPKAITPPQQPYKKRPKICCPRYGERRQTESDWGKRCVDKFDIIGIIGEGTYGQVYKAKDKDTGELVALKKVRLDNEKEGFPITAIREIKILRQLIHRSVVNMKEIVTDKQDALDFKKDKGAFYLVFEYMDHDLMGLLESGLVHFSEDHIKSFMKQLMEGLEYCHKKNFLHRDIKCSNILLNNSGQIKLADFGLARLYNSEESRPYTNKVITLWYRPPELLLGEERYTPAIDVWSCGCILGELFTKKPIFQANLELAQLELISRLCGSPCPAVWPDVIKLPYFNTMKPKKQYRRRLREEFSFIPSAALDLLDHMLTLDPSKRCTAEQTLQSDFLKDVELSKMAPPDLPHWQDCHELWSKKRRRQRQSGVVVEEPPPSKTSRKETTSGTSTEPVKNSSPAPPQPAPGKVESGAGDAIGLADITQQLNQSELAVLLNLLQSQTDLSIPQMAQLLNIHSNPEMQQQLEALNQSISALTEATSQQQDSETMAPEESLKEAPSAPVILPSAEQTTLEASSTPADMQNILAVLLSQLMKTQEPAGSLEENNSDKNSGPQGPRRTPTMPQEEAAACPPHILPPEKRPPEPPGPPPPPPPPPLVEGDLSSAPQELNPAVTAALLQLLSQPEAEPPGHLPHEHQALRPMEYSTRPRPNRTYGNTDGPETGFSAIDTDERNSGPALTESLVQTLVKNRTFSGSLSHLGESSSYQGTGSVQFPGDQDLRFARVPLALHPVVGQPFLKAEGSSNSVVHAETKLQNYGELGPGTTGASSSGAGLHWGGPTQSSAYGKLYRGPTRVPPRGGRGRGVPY
# Sequence (O75909 whole entry partner, species assumed): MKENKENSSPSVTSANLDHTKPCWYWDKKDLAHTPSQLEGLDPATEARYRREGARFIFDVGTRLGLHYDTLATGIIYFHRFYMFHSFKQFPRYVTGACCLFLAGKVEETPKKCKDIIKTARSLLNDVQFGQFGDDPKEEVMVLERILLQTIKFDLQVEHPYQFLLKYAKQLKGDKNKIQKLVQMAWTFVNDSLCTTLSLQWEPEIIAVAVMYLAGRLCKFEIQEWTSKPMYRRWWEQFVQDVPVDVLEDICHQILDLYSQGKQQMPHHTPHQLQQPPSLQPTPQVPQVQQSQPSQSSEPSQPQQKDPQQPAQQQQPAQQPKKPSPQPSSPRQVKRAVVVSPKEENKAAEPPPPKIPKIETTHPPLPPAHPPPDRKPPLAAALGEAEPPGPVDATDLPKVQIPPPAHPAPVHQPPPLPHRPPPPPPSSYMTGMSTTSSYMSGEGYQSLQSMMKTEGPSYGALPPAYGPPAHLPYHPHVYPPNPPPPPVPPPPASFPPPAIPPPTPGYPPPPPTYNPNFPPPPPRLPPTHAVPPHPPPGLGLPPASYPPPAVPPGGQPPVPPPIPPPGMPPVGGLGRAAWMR
# ASSAY DETAILS: CDK12 kinase inhibitory activity assay (33P-ATP filter binding)
# Assay type: biochemical
# RUN PARAMETERS: kinase reaction 120 minutes, 33P-gamma-ATP; read-out: CDK12 IC50
Hi there, I'd appreciate the recorded IC50 for every entry that follows.

MOLECULE	ASSAY TARGET	IC50
C[C@@H]1CN(c2cc(NCc3nc4cc(F)c(F)cc4[nH]3)c3ncc(C(F)(F)F)n3n2)C[C@H](C)N1 [Example 112]	CDK12 (Homo sapiens)	< 100 nM
OC1CCN(c2cc(NCc3nc4ccc(F)c(F)c4[nH]3)c3ncc(C(F)(F)F)n3n2)CC1 [Example 19]	CDK12 (Homo sapiens)	< 100 nM
OC1CC2(C1)CN(c1cc(NCc3nc4cc(Cl)c(Cl)cc4[nH]3)c3ncc(C(F)(F)F)n3n1)C2 [Example 47]	CDK12 (Homo sapiens)	100 to 500 nM
CN1CC2CC(C1)N2c1cc(NCc2nc3cc(Cl)c(Cl)cc3[nH]2)c2ncc(C(F)(F)F)n2n1 [Example 100]	CDK12 (Homo sapiens)	< 100 nM
C#Cc1cnc2c(NCc3nc4ccc(F)c(F)c4[nH]3)cc(N3CCOCC3)nn12 [Example 1]	CDK12 (Homo sapiens)	100 to 500 nM

Test item FC(F)(F)c1cnc2c(NCc3nc4cc(Cl)c(Cl)cc4[nH]3)cc(N3CC4CCC3CO4)nn12 (stereo not drawn) [Example 43] ; CDK12 (Homo sapiens); reported IC50 was 100 to 500 nM
